# credit: patent US7208505B2

# experimental.target: human β3 adrenergic receptor (Homo sapiens)
# Construct: expressed in transfected cells
# test.description: whole cell receptor coupled c-AMP assay (Emax relative to isoproterenol)
# Assay type: cell-based
# stated.conditions: % intrinsic activity: maximal response divided by isoproterenol maximal response times 100; transfected CHO cells; average of at least 3 runs
Hi there, I'd appreciate the recorded Emax (%) ± SEM for every entry that follows.
The response must be a number in % with no trailing unit.

[ask] Can you look up the measured Emax (%) ± SEM of C[C@H](CN1CCc2ccccc21)NC[C@H](O)COc1ccccc1-c1cccs1 [Example 128] for me?
[reply] 46.5

[ask] Can you look up the measured Emax (%) ± SEM of CC(C)(Cc1c[nH]c2c(-c3cccc(C(F)(F)F)c3)cccc12)NC[C@H](O)COc1ccccc1-c1ccon1 [Example 38] for me?
[reply] 78.0

[ask] Can you look up the measured Emax (%) ± SEM of Cc1cc(-c2ccccc2OC[C@@H](O)CNC(C)(C)Cc2c[nH]c3c(OCC#N)cccc23)cs1.O=C(O)C(F)(F)F [Example 18] for me?
[reply] 52.3

[ask] Can you look up the measured Emax (%) ± SEM of CC(C)(Cc1c[nH]c2c(-c3cccc(C(F)(F)F)c3)cccc12)NC[C@H](O)COc1ccccc1-c1cccs1 [Example 37] for me?
[reply] 82.0

[ask] Can you look up the measured Emax (%) ± SEM of Cc1csc(-c2ccccc2OC[C@@H](O)CNC(C)(C)Cc2c[nH]c3c(OCC#N)cccc23)c1.O=C(O)C(F)(F)F [Example 22] for me?
[reply] 66.0

[ask] Can you look up the measured Emax (%) ± SEM of CC(C)(Cc1c[nH]c2c(CCC(N)=O)cccc12)NC[C@H](O)COc1ccccc1-c1cccs1 [Example 140] for me?
[reply] 83.5

[ask] Can you look up the measured Emax (%) ± SEM of CC(C)(Cc1c[nH]c2ccccc12)NC[C@H](O)COc1ccccc1-c1cnco1 [Example 34] for me?
[reply] 64.5

###

# experimental.target: human β3 adrenergic receptor (Homo sapiens, UniProt P13945)
# Construct: expressed in transfected cells
# Sequence (P13945 whole entry): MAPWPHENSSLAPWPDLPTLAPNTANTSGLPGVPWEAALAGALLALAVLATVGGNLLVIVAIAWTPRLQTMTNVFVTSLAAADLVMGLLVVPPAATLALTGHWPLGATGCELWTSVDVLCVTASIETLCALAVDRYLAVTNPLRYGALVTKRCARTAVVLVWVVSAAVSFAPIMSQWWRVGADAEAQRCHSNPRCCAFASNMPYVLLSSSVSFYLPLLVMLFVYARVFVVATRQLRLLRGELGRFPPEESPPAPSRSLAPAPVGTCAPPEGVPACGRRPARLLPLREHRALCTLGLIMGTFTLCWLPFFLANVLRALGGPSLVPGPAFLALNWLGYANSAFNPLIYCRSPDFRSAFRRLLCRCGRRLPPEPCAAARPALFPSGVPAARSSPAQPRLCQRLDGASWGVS
# test.description: whole cell receptor coupled c-AMP assay (Emax relative to isoproterenol)
# Type: cell-based
# stated.conditions: % intrinsic activity: maximal response divided by isoproterenol maximal response times 100; transfected CHO cells; average of at least 3 runs
# Procedure: […] Cells from each of the above cell lines are resuspended and added (20,000/well) to a 96-well plate. […] After halting the incubation with quench buffer (50 mM Na Acetate, 0.25% Triton X-100, pH 5.8), the c-AMP level is quantified by scintillation proximity assay (SPA) using a modification of the commercially available c-AMP kit (Amersham, Arlington Heights, Ill.) with rabbit anti-cAMP antibody (ICN Biomedicals, Aurora, Ohio) for the kit. […]
Hi there, I'd appreciate the recorded Emax (%) ± SEM for every entry that follows.
The response must be a number in % with no trailing unit.

[ask] Can you look up the measured Emax (%) ± SEM of `CC(C)(Cc1c[nH]c2c(C(=O)O)cccc12)NC[C@H](O)COc1ccccc1-c1ccsc1` for me?
[reply] 56.6

[ask] Can you look up the measured Emax (%) ± SEM of `CC(C)(Cc1c[nH]c2cc(F)ccc12)NC[C@H](O)COc1ccccc1-c1ccon1` for me?
[reply] 55.0

[ask] Can you look up the measured Emax (%) ± SEM of `CC(C)(Cc1c[nH]c2c(OCC#N)cccc12)NC[C@H](O)COc1ccccc1-c1ccc(C#N)s1.O=C(O)C(F)(F)F` for me?
[reply] 77.7

[ask] Can you look up the measured Emax (%) ± SEM of `CC(C)(Cc1c[nH]c2cccc(F)c12)NC[C@H](O)COc1ccccc1-c1ccon1` for me?
[reply] 47.8

###

Hi there, I'd appreciate the recorded Emax (%) ± SEM for every entry that follows.
# experimental.target: human β3 adrenergic receptor (Homo sapiens, UniProt P13945)
# Construct: expressed in transfected cells
# test.description: whole cell receptor coupled c-AMP assay (Emax relative to isoproterenol)
# Assay type: cell-based
# stated.conditions: % intrinsic activity: maximal response divided by isoproterenol maximal response times 100; transfected CHO cells; average of at least 3 runs
The response must be a number in % with no trailing unit.

[ask] Can you look up the measured Emax (%) ± SEM of `CC(C)(Cc1c[nH]c2ccccc12)NC[C@H](O)COc1ccccc1-c1nccs1` for me?
[reply] 53.2

[ask] Can you look up the measured Emax (%) ± SEM of `CC(C)(Cc1c[nH]c2c(-c3cccs3)cccc12)NC[C@H](O)COc1ccccc1-c1cccs1` for me?
[reply] 71.5

[ask] Can you look up the measured Emax (%) ± SEM of `CC(C)(Cc1c[nH]c2c(NS(C)(=O)=O)cccc12)NC[C@H](O)COc1ccccc1-c1ccon1` for me?
[reply] 58.5

[ask] Can you look up the measured Emax (%) ± SEM of `CC(C)(Cc1c[nH]c2c(-c3ccc(C(F)(F)F)cc3)cccc12)NC[C@H](O)COc1ccccc1-c1cccs1` for me?
[reply] 59.2

###

# experimental.target: human β3 adrenergic receptor (Homo sapiens)
# Construct: expressed in transfected cells
# test.description: whole cell receptor coupled c-AMP assay (Emax relative to isoproterenol)
# Type: cell-based
# stated.conditions: % intrinsic activity: maximal response divided by isoproterenol maximal response times 100; transfected CHO cells; average of at least 3 runs
Decision: Emax (%) ± SEM >= 70% yields Fulfilled, all other cases yield Not fulfilled.

[ask] Identify whether the reported Emax (%) ± SEM of the following compound is 70% or greater: `CC(C)(Cc1c[nH]c2ccccc12)NC[C@H](O)COc1ccccc1-c1cc(C#N)cs1.O=C(O)C(F)(F)F`
[reply] Not fulfilled

[ask] Identify whether the reported Emax (%) ± SEM of the following compound is 70% or greater: `CC(C)(Cc1c[nH]c2c(NS(C)(=O)=O)cccc12)NC[C@H](O)COc1ccccc1-c1ccc(S(N)(=O)=O)s1`
[reply] Fulfilled

[ask] Identify whether the reported Emax (%) ± SEM of the following compound is 70% or greater: `COC(=O)c1ccc2c(ccn2C[C@@H](C)NC[C@H](O)COc2ccccc2-c2cccs2)c1`
[reply] Not fulfilled

[ask] Identify whether the reported Emax (%) ± SEM of the following compound is 70% or greater: `CC(C)(Cc1c[nH]c2ccccc12)NC[C@H](O)COc1ccccc1-c1cccs1`
[reply] Not fulfilled

###

# experimental.target: human β3 adrenergic receptor (Homo sapiens, UniProt P13945)
# Construct: expressed in transfected cells
# test.description: whole cell receptor coupled c-AMP assay (Emax relative to isoproterenol)
# Assay type: cell-based
# stated.conditions: % intrinsic activity: maximal response divided by isoproterenol maximal response times 100; transfected CHO cells; average of at least 3 runs
test.readout: Emax (%) ± SEM
Field: value (include unit after the number)

[ask] Can you look up the measured Emax (%) ± SEM of CC(C)(Cc1c[nH]c2ccccc12)NC[C@H](O)COc1ccccc1-c1cocn1 [Example 31] for me?
[reply] 62.4 ± 2.1%

[ask] Can you look up the measured Emax (%) ± SEM of CC(C)(Cc1c[nH]c2c(C=CC(N)=O)cccc12)NCC(O)COc1ccccc1-c1cccs1 (stereo not shown) [Example 139] for me?
[reply] 86.5 ± 5.5%

[ask] Can you look up the measured Emax (%) ± SEM of CCOC(=O)c1cccc(-c2cccc3c(CC(C)(C)NC[C@H](O)COc4ccccc4-n4cccc4)c[nH]c23)c1 [Example 42] for me?
[reply] 61.0 ± 4.5%

[ask] Can you look up the measured Emax (%) ± SEM of CC(C)(Cc1c[nH]c2c(F)cccc12)NC[C@H](O)COc1ccccc1-c1ccon1 [Example 173] for me?
[reply] 50.2 ± 1.5%

###

Hi there, I'd appreciate the recorded Emax (%) ± SEM for every entry that follows.
# experimental.target: human β3 adrenergic receptor (Homo sapiens, UniProt P13945)
# Construct: expressed in transfected cells
# test.description: whole cell receptor coupled c-AMP assay (Emax relative to isoproterenol)
# Assay type: cell-based
# stated.conditions: % intrinsic activity: maximal response divided by isoproterenol maximal response times 100; transfected CHO cells; average of at least 3 runs

[ask] Can you look up the measured Emax (%) ± SEM of `CC(C)(Cc1c[nH]c2cc(F)ccc12)NC[C@H](O)COc1ccccc1-c1cccs1` for me?
[reply] 69.6 ± 4.8%

[ask] Can you look up the measured Emax (%) ± SEM of `CC(C)(Cc1c[nH]c2c(C=Cc3ccc(S(N)(=O)=O)cc3)cccc12)NC[C@H](O)COc1ccccc1-c1cccs1` for me?
[reply] 64.5 ± 1.7%

[ask] Can you look up the measured Emax (%) ± SEM of `CC(C)(Cc1c[nH]c2cc(C(=O)O)ccc12)NC[C@H](O)COc1ccccc1-c1ccc(C#N)s1` for me?
[reply] 74.1 ± 2.4%

[ask] Can you look up the measured Emax (%) ± SEM of `CC(=O)c1cccc(-c2cccc3c(CC(C)(C)NC[C@H](O)COc4ccccc4-c4ccon4)c[nH]c23)c1` for me?
[reply] 69.2 ± 2.0%

[ask] Can you look up the measured Emax (%) ± SEM of CC(Cc1cn(C)c2c(F)cc(F)cc12)NCC(O)COc1ccccc1-c1cccs1 (stereo not shown) for me?
[reply] 34.5 ± 4.2%

[ask] Can you look up the measured Emax (%) ± SEM of `CC(C)(Cc1c[nH]c2ccccc12)NC[C@H](O)COc1ccccc1-c1cscn1` for me?
[reply] 58.2 ± 2.3%

[ask] Can you look up the measured Emax (%) ± SEM of `C[C@H](Cn1ccc2ccc(OCC#N)cc21)NC[C@H](O)COc1ccccc1-c1cccs1` for me?
[reply] 28.6 ± 3.4%

[ask] Can you look up the measured Emax (%) ± SEM of `CC(C)(Cc1c[nH]c2c(-c3cccc(C(F)(F)F)c3)cccc12)NC[C@H](O)COc1ccccc1-n1cccc1` for me?
[reply] 71.7 ± 3.0%

[ask] Can you look up the measured Emax (%) ± SEM of CC(C)(Cc1c[nH]c2c(OCC#N)cccc12)NCC(O)COc1ccccc1-c1ccoc1 (stereo not shown) for me?
[reply] 66.0 ± 3.6%

[ask] Can you look up the measured Emax (%) ± SEM of `CC(C)(Cc1c[nH]c2c(CCc3ccc(C#N)cc3)cccc12)NC[C@H](O)COc1ccccc1-c1cccs1` for me?
[reply] 77.9 ± 0.7%

[ask] Can you look up the measured Emax (%) ± SEM of `CC(C)(Cc1c[nH]c2ccc(OCC#N)cc12)NC[C@H](O)COc1ccccc1-c1cccs1` for me?
[reply] 51.9 ± 3.4%

[ask] Can you look up the measured Emax (%) ± SEM of `COC(=O)c1ccc2c(CC(C)(C)NC[C@H](O)COc3ccccc3-c3cccs3)c[nH]c2c1` for me?
[reply] 47.2 ± 0.3%

[ask] Can you look up the measured Emax (%) ± SEM of `CC(C)(Cc1c[nH]c2c(C(N)=O)cccc12)NC[C@H](O)COc1ccccc1-c1ccon1` for me?
[reply] 41.1 ± 3.5%

[ask] Can you look up the measured Emax (%) ± SEM of `CC(C)(Cc1c[nH]c2cc(C#N)ccc12)NC[C@H](O)COc1ccccc1-c1ccon1` for me?
[reply] 58.6 ± 0.9%

[ask] Can you look up the measured Emax (%) ± SEM of `CC(C)(Cc1c[nH]c2c(C=Cn3ccnc3)cccc12)NC[C@H](O)COc1ccccc1-c1cccs1` for me?
[reply] 66.5 ± 0.4%

[ask] Can you look up the measured Emax (%) ± SEM of `C[C@H](Cn1ccc2ccccc21)NC[C@H](O)COc1ccccc1-c1nccs1` for me?
[reply] 34.8 ± 3.2%

[ask] Can you look up the measured Emax (%) ± SEM of `CC(C)(Cc1c[nH]c2ccccc12)NC[C@H](O)COc1ccccc1-n1cccc1` for me?
[reply] 58.9 ± 1.9%

[ask] Can you look up the measured Emax (%) ± SEM of CC(C)(Cc1c[nH]c2c(OCC#N)cccc12)NC[C@H](O)COc1ccccc1-c1cccs1 [Example 101] for me?
[reply] 76.5 ± 12.6%

[ask] Can you look up the measured Emax (%) ± SEM of `CCOC(=O)c1cccc(-c2cccc3c(CC(C)(C)NC[C@H](O)COc4ccccc4-c4cccs4)c[nH]c23)c1` for me?
[reply] 73.3 ± 4.6%

[ask] Can you look up the measured Emax (%) ± SEM of `CC(C)(Cc1c[nH]c2c(OCC(=O)O)cccc12)NC[C@H](O)COc1ccccc1-c1cccs1.Cl` for me?
[reply] 70.3 ± 5.7%

[ask] Can you look up the measured Emax (%) ± SEM of `O[C@@H](CNCCn1ccc2ccccc21)COc1ccccc1-c1cccs1` for me?
[reply] 22.2 ± 4.5%

[ask] Can you look up the measured Emax (%) ± SEM of `C[C@@H](Cc1c[nH]c2c(OCC#N)cccc12)NC[C@H](O)COc1ccccc1-c1nncs1` for me?
[reply] 21.7 ± 3.1%

[ask] Can you look up the measured Emax (%) ± SEM of `CC(=O)c1ccc(-c2cccc3c(CC(C)(C)NC[C@H](O)COc4ccccc4-c4ccon4)c[nH]c23)cc1` for me?
[reply] 44.2 ± 1.2%

[ask] Can you look up the measured Emax (%) ± SEM of `C[C@H](Cn1ccc2c(OCC#N)cccc21)NC[C@H](O)COc1ccccc1-c1ccon1` for me?
[reply] 46.6 ± 1.9%

[ask] Can you look up the measured Emax (%) ± SEM of `CC(C)(Cc1c[nH]c2ccccc12)NC[C@H](O)COc1ccccc1-c1ncco1` for me?
[reply] 75.9 ± 1.9%

[ask] Can you look up the measured Emax (%) ± SEM of `Cc1cc(-c2ccccc2OC[C@@H](O)CNC(C)(C)Cc2c[nH]c3ccccc23)on1` for me?
[reply] 63.9 ± 1.6%

[ask] Can you look up the measured Emax (%) ± SEM of `CC(C)(Cc1c[nH]c2c(-c3cccs3)cccc12)NC[C@H](O)COc1ccccc1-c1ccon1` for me?
[reply] 68.0 ± 4.1%

[ask] Can you look up the measured Emax (%) ± SEM of `CC(C)(Cc1c[nH]c2c(-c3ccc(C(N)=O)cc3)cccc12)NC[C@H](O)COc1ccccc1-c1cccs1` for me?
[reply] 69.0 ± 2.2%

[ask] Can you look up the measured Emax (%) ± SEM of `C[C@H](Cn1ccc2cc(OCC#N)ccc21)NC[C@H](O)COc1ccccc1-c1cccs1` for me?
[reply] 58.7 ± 13.4%

[ask] Can you look up the measured Emax (%) ± SEM of `Cc1ccc(-c2ccccc2OC[C@@H](O)CNC(C)(C)Cc2c[nH]c3c(OCC#N)cccc23)s1.O=C(O)C(F)(F)F` for me?
[reply] 75.2 ± 3.0%

[ask] Can you look up the measured Emax (%) ± SEM of `CC(C)(Cc1c[nH]c2ccccc12)NC[C@H](O)COc1ccccc1-c1ccc(F)s1` for me?
[reply] 76.1 ± 2.9%
